# assay system: recombinant human DR 5 receptor Fc fusion protein (R&D Systems) (human)
# Sequence (chain, as listed by the source): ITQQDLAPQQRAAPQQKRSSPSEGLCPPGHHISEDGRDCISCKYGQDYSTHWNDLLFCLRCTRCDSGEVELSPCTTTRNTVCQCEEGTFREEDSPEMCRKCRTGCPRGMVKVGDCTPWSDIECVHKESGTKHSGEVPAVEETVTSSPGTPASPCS
# experiment summary: SPR (Biacore), captured DR5/Fc
Record form. Attribute: kon. Fill in for each entry.
Answer format reminder: number followed by unit.

These recorded examples may help you get a feel for the data.
>>> experimental_result("2a1a (=B9F) DR 5 ATRIMER (designed binder, Homotrimer (ATRIMER) of this chain; one protomer is given., also called 029-15.B9F; not shown: C-terminal tag (His/Myc of pANA4, HA-StrepII of pANA10, or that of pANA19)) EPPTQKPKKIVNAKKDVVNTKMFEELKSRLDTLAQEVALLKEQQALQTVCLKGTKVHMKCFLAFTQTKTFHEASEDCISRGGTLSTPQTGSENDALYEYLRQSVGNEAEIWLGLNKRVWYRGWVDMTGARIAYKNWETEITAQPDGGMRRRRENCAVLSGAANGKWFDKRCRDQLPYICQFGIV")
"43800 M⁻¹ s⁻¹"
>>> experimental_result("9b3d (=B3D) DR 5 ATRIMER (designed binder, Homotrimer (ATRIMER) of this chain; one protomer is given., also called 029-15.B3D; not shown: C-terminal tag (His/Myc of pANA4, HA-StrepII of pANA10, or that of pANA19)) EPPTQKPKKIVNAKKDVVNTKMFEELKSRLDTLAQEVALLKEQQALQTVCLKGTKVHMKCFLAFTQTKTFHEASEDCISRGGTLSTPQTGSENDALYEYLRQSVGNEAEIWLGLNELRTDGLWVDMTGARIAYKNWETEITAQPDGGVMRRSENCAVLSGAANGKWFDKRCRDQLPYICQFGIV")
"116 M⁻¹ s⁻¹"
>>> experimental_result("1a7b (=A8G) DR 5 ATRIMER (designed binder, Homotrimer (ATRIMER) of this chain; one protomer is given., also called 029-15.A8G; not shown: C-terminal tag (His/Myc of pANA4, HA-StrepII of pANA10, or that of pANA19)) EPPTQKPKKIVNAKKDVVNTKMFEELKSRLDTLAQEVALLKEQQALQTVCLKGTKVHMKCFLAFTQTKTFHEASEDCISRGGTLSTPQTGSENDALYEYLRQSVGNEAEIWLGLNRAWLRPRWVDMTGARIAYKNWETEITAQPDGGTLVSGENCAVLSGAANGKWFDKRCRDQLPYICQFGIV")
"40500 M⁻¹ s⁻¹"

Query: # get_value(readout='kon', item= 8b6b (=A1H) DR 5 ATRIMER (designed binder, Homotrimer (ATRIMER) of this chain; one protomer is given., also called 029-15.A1H; not shown: C-terminal tag (His/Myc of pANA4, HA-StrepII of pANA10, or that of pANA19)) EPPTQKPKKIVNAKKDVVNTKMFEELKSRLDTLAQEVALLKEQQALQTVCLKGTKVHMKCFLAFTQTKTFHEASEDCISRGGTLSTPQTGSENDALYEYLRQSVGNEAEIWLGLNRAVLRPRWVDMTGARIAYKNWETEITAQPDGGWVLGGKNCAVLSGAANGKWFDKRCRDQLPYICQFGIV )
Reply: 12900 M⁻¹ s⁻¹
